FYI, the data here is from ChEMBL document CHEMBL1151249.

List of Activity values.
# System: Micrococcus luteus
# assay method text: Antimicrobial activity against Micrococcus luteus assessed as 99.9 % growth inhibition after 18 hrs by zone-of-inhibition assay
# Type: functional
endpoint: Activity

                            molecule_smiles  endpoint  recorded_measurement
0                 COc1c(O)cc2ccc(=O)oc2c1OC  Activity           >1000 µg/mL
1  CC1=CC(=O)c2c(ccc(C3=C(C)C(=O)c4cccc(O)c4C3=O)c2O)C1=O  Activity           >1000 µg/mL
2  CC1=CC(=O)c2c(O)ccc(-c3ccc(O)c4c3C(=O)C(C)=CC4=O)c2C1=O  Activity           >1000 µg/mL
3             COC1=CC(=O)c2cc(C)cc(O)c2C1=O  Activity           >1000 µg/mL
4             COC1=CC(=O)c2c(O)cc(C)cc2C1=O  Activity             800 µg/mL
5                 CC1=CC(=O)c2c(O)cccc2C1=O  Activity             600 µg/mL

====

List of Activity values.
# Test system: Micrococcus luteus
# assay method text: Antimicrobial activity against Micrococcus luteus assessed as 99.9 % growth inhibition after 18 hrs by zone-of-inhibition assay
# Type: functional
endpoint: Activity

>>> print(df.to_string())
                            molecule_smiles  recorded_measurement
0  C=C(C)[C@@H]1CC[C@]2(C)CC[C@]3(C)[C@H](CC[C@@H]4[C@@]5(C)CC[C@H](O)C(C)(C)[C@@H]5CC[C@]43C)[C@@H]12           >1000 µg/mL
1                     COc1cc2ccc(=O)oc2cc1O           >1000 µg/mL
2            Cc1cc(O)c2c(c1)[C@@H](O)CCC2=O           >1000 µg/mL
